- assaySystem: Cyclin-dependent kinase 4/cyclin D1 (Homo sapiens, UniProt P11802)
- Sequence (P11802 whole entry): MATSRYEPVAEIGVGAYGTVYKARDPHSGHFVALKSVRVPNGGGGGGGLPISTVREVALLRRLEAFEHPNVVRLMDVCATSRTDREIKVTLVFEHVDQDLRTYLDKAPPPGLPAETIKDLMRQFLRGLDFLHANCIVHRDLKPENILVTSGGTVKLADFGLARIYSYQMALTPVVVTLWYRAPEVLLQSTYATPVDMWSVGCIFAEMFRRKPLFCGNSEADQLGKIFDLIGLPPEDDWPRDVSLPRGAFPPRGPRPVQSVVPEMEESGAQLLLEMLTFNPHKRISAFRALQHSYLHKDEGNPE
- Sequence (P24385 whole entry, further chain): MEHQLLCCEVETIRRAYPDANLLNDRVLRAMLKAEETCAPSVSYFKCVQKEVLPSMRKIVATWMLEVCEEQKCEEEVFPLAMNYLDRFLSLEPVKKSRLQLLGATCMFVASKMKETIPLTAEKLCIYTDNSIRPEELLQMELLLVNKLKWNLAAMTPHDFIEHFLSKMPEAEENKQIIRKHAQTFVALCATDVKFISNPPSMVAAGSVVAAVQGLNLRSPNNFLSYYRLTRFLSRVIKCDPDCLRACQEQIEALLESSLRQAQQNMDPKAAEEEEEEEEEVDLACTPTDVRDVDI
- assayRemarks: In vitro inhibitory activity against human cyclin dependent kinase (CDK4/D1)
# IC50 values compiled below

Examples with answers:
- structureSmilesString: "CC(C)(C)Nc1nc(C(F)(F)F)nc2ccc(-c3cccc(C(N)=O)c3)cc12"
  assaySystem: "Cyclin-dependent kinase 4/cyclin D1 (Homo sapiens, UniProt P11802)"
  IC50: "> 2.5 µM"
- structureSmilesString: "CC(C)(C)Nc1nc(C(F)(F)F)nc2ccc(-c3ccc(Cl)cc3Cl)cc12"
  assaySystem: "Cyclin-dependent kinase 4/cyclin D1 (Homo sapiens, UniProt P11802)"
  IC50: "> 2.4 µM"
- structureSmilesString: "Fc1cc(F)cc(CNc2nc(C(F)(F)F)nc3ccccc23)c1"
  assaySystem: "Cyclin-dependent kinase 4/cyclin D1 (Homo sapiens, UniProt P11802)"
  IC50: "> 19 µM"

For "CC(C)(C)Nc1nc(C(F)(F)F)nc2ccc(C(F)(F)F)cc12" , what is its reported IC50?
> 37 µM

For the molecule "CC(C)(C)Nc1nc(C(F)(F)C(F)(F)F)nc2ccccc12" , what IC50 is on record?
> 20 µM

The values you see were collected from ChEMBL document CHEMBL1134251.
